Reference for the values: patent US7449477B2

# assay system: active human Akt1 (Homo sapiens)
# Construct: Active human recombinant Akt1 (full-length) purified from Sf9 insect cells
# Sequence (P31749 whole entry): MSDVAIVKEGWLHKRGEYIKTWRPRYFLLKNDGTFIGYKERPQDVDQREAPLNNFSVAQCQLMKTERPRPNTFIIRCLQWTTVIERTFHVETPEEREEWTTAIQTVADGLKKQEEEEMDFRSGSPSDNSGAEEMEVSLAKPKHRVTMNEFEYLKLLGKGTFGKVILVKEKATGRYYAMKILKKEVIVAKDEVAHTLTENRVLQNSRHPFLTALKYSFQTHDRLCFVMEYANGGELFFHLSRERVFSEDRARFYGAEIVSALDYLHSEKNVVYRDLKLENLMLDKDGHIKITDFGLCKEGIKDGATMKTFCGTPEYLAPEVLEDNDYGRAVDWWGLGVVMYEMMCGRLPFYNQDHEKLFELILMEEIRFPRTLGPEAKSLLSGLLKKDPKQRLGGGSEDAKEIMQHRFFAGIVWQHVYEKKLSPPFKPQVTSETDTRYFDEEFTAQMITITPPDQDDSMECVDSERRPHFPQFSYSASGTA
# protocol details: Akt1 Phosphorylation Assay (phosphocellulose filter-binding, 33P-Crosstide)
# experimental setup: active human recombinant Akt1 (full-length) 10 nM; 12.5 μM Crosstide; 20 μM ATP; 30 minutes at room temperature
# Protocol: Akt1 Phosphorylation Assay The assay described measures the phosphorylation of Crosstide by active human Akt1 and other Akt isoforms. Crosstide contains a consensus sequence derived from Akt substrates GSK3b and forkhead transcription factors (FKs). […] After 30 minutes at room temperature, the reaction is terminated by adding 80 μl of 10% H3PO4. […] 100 μl/well Microscint20 are added and the contents are counted in a Packard Top Count.
Where a name gives a salt, the structure may show the parent alone.
quantity measured: IC50

Answered cases to consult:
{"compound": "N#Cc1ccc(CC(O)CNCCNS(=O)(=O)c2cc(-c3ccccc3)cc3cnccc23)cc1 (stereo not drawn) [Example 111, dihydrochloride salt, dihydrochloride …]", "recorded measurement": "≤ 2000 nM"}
{"compound": "CN(C)S(=O)(=O)c1ccc(CCCNCCNS(=O)(=O)c2cc(-c3ccccc3)cc3cnccc23)cc1 [Example 24, dihydrochloride salt]", "recorded measurement": "≤ 2000 nM"}
{"compound": "COc1ccc(CCCNCCNS(=O)(=O)c2cc(-c3ccc(O)cc3)cc3cnccc23)c(F)c1", "recorded measurement": "≤ 2000 nM"}
{"compound": "O=[N+]([O-])c1ccc(C(O)C(O)CNCCNS(=O)(=O)c2cc(-c3ccccc3)cc3cnccc23)cc1 (single isomer, unassigned; isomer 1) [Example 88, dihydrochloride salt]", "recorded measurement": "≤ 2000 nM"}
{"compound": "O=[N+]([O-])c1ccc(CCCNCCNS(=O)(=O)c2cc(-c3ccccc3O)cc3cnccc23)cc1 [Example 91, dihydrochloride salt]", "recorded measurement": "≤ 2000 nM"}

Note: attention shifts to another entry.
# input Tell me the measured IC50 of O=S(=O)(NCCNCCCc1cccc(Cl)c1Cl)c1cc(-c2ccccc2)cc2cnccc12 [Example 66, dihydrochloride salt] , please.
# output ≤ 2000 nM
